Biological target: PDE9A (Homo sapiens)
Construct: A 1.8 kb region of PDE9A encoding the full length protein (nucleotides 61-1842) was amplified and cloned; made in house; host or cells: Sf9 insect cells (baculovirus, pFASTBAC)
Sequence (O76083 whole entry): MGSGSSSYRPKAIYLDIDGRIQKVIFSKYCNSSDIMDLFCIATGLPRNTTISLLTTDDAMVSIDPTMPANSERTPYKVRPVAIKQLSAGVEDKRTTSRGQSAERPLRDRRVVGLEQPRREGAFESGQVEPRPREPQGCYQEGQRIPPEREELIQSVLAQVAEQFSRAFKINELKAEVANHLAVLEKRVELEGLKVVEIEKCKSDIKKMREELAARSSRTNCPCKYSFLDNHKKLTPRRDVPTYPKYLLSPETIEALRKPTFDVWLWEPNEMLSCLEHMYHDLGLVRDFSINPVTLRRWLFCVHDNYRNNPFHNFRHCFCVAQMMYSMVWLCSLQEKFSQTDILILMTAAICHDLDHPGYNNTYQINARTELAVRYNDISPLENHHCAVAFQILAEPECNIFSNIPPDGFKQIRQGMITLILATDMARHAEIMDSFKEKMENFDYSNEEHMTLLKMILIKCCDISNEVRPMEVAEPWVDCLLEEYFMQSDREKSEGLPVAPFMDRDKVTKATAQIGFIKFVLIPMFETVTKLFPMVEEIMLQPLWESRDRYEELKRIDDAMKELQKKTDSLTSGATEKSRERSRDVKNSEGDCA
Test: Effect of known PDE inhibitors on PDE9A activity (hydrolysis of 3H-cGMP)
Format: biochemical
Details: recombinant PDE9A from Sf9 cell lysate, cGMP as substrate, FIG. 5; read-out: IC50 for inhibition of PDE9A
ENDPOINT_LABEL: IC50 (µM)
Please respond with the number in µM and leave the unit unwritten.

Q: Return value of IC50 for input CCCOc1ccccc1-c1nc2nn[nH]c2c(=O)[nH]1 , no commentary.
Ans: 35
